Recorded values, source ChEMBL document CHEMBL4765492.

Biological target: Cystic fibrosis transmembrane conductance regulator (Homo sapiens, UniProt P13569, F508DEL)
Sequence (P13569 as listed by the source): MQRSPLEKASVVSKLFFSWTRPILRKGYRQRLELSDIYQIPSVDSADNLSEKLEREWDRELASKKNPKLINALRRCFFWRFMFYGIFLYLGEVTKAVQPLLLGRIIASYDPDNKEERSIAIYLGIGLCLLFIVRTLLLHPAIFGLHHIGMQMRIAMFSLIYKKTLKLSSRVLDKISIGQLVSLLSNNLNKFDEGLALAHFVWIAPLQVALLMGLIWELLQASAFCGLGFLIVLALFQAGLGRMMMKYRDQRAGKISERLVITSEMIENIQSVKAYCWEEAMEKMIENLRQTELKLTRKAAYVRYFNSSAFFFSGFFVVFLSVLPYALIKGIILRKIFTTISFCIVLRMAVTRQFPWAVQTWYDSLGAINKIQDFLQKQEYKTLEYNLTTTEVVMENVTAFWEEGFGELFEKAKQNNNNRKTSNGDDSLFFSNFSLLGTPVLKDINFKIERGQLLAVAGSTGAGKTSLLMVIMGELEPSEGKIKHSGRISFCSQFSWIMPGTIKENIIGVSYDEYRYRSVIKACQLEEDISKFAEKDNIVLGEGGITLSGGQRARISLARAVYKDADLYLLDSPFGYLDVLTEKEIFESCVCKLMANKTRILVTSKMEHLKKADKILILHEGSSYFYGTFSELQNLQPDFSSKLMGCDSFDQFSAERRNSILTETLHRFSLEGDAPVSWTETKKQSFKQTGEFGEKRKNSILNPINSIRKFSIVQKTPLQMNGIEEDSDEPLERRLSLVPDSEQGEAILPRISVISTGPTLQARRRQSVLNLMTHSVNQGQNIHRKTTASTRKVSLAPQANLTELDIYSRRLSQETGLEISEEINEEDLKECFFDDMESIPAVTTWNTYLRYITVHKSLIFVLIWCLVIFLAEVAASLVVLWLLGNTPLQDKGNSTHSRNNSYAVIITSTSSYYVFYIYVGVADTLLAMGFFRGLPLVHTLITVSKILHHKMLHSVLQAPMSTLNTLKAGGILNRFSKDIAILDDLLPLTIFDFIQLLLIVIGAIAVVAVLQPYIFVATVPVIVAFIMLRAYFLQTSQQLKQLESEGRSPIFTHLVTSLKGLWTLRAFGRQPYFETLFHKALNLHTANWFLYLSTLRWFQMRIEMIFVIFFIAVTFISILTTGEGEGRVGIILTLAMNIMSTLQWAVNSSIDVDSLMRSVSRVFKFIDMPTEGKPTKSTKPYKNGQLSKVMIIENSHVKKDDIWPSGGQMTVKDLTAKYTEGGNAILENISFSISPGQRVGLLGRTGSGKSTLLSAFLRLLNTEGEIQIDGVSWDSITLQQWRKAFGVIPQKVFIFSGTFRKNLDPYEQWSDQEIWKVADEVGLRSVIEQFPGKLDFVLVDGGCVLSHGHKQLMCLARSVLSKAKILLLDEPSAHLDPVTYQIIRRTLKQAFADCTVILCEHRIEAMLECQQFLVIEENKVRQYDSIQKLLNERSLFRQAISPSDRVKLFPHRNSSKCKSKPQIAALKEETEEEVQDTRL
Test: Potentiation of CFTR F508del mutant (unknown origin) expressed in human CFBE41o- cells co-expressing YFP incubated for 10 mins by halide potentiator assay
Assay type: cell-based
pEC50: −log10 of the molar value.
assay-readout: pEC50

Some solved entries appear below for comparison.
compound: CN(Cc1ccccc1)S(=O)(=O)c1cc(C(N)=O)c(NC(=O)c2ccn[nH]2)s1
pEC50: 7.77
--
compound: CC(C)(O)C(=O)Nc1sc(S(=O)(=O)c2ccc(F)cc2)cc1C(N)=O
pEC50: 7.59
--
compound: CC(C)(O)CNC(=O)c1ncc(S(=O)(=O)c2ccc(OC(F)(F)F)cc2)cc1N
pEC50: 7.48
--
compound: NC(=O)c1cc(S(=O)(=O)N2CCCCC2)sc1NC(=O)c1ccn[nH]1
pEC50: 7.89
--
compound: NC(=O)c1cc(S(=O)(=O)c2ccc(F)cc2)sc1NC(=O)C1(O)CC1
pEC50: 7.10

(a) C[C@H](O)CNC(=O)c1ncc(S(=O)(=O)c2ccc(OC(F)(F)F)cc2)cc1N
(b) Nc1cc(S(=O)(=O)c2ccc(OC(F)(F)F)cc2)cnc1C(=O)NCC1(O)CC1
For the pair a and b , which member has the lower pEC50 number? Pick one; state its label.
a

(1) NC(=O)c1cc(S(=O)(=O)c2ccc(F)cc2)sc1NC(=O)c1ccn[nH]1
(2) Nc1cc(S(=O)(=O)c2ccc(OC(F)(F)F)cc2)cnc1C(=O)NC[C@@H](O)C(F)(F)F
For the pair 1 and 2 , which member has the lower pEC50 number? Pick one; state its label.
1

====

Test: Clearance in Cynomolgus monkey at 1 mg/kg, iv
Assay type: ADME, organism-based, Macaca fascicularis
Settings: in vivo
assay-readout: clearance (mL/min/kg)
Give just the number in mL/min/kg; leave the unit off.

Input C[C@H](O)CNC(=O)c1ncc(S(=O)(=O)c2ccc(OC(F)(F)F)cc2)cc1N . Output clearance: 0.667

====

Assay: Permeability of compound across apical to basolateral membrane in MDCK cells
Type: ADME, cell-based, Canis lupus familiaris
Conditions: dog, read-out: permeability
assay-readout: Papp A→B (×10⁻⁶ cm/s)

Some solved entries appear below for comparison.
smiles-notation: NC(=O)c1cc(S(=O)(=O)N2CCCCC2)sc1NC(=O)c1ccn[nH]1
assay-readout: Papp A→B
observed-measurement: 0.5

smiles-notation: CC(C)(O)C(=O)Nc1sc(S(=O)(=O)c2ccc(F)cc2)cc1C(N)=O
assay-readout: Papp A→B
observed-measurement: 4

smiles-notation: NC(=O)c1cc(S(=O)(=O)c2ccc(F)cc2)sc1NC(=O)c1ccn[nH]1
assay-readout: Papp A→B
observed-measurement: 0.9

(I) NC(=O)c1cc(S(=O)(=O)c2ccc(F)cc2)sc1NC(=O)C1(O)CC1
(II) CN(Cc1ccccc1)S(=O)(=O)c1cc(C(N)=O)c(NC(=O)c2ccn[nH]2)s1
For the pair I and II , which member has the lower Papp A→B number? Pick one; state its label.
II

====

Assay: Unbound intrinsic clearance in rat liver microsomes
Type: ADME, Microsome
assay-readout: CL free (L/h/kg)

Some solved entries appear below for comparison.
smiles-notation: NC(=O)c1cc(S(=O)(=O)N2CCCCC2)sc1NC(=O)c1ccn[nH]1
CL free, L/h/kg: 15
//
smiles-notation: Nc1cc(S(=O)(=O)c2ccc(F)cc2)cnc1C(=O)N1CC(O)(C(F)(F)F)C1
CL free, L/h/kg: 1.7
//
smiles-notation: NC(=O)c1cc(S(=O)(=O)c2ccc(F)cc2)sc1NC(=O)c1ccn[nH]1
CL free, L/h/kg: 4.3

(P) Nc1cc(S(=O)(=O)c2ccc(OC(F)(F)F)cc2)cnc1C(=O)NCC1(O)CC1
(Q) CC(C)(O)C(=O)Nc1sc(S(=O)(=O)c2ccc(F)cc2)cc1C(N)=O
Between the entries labelled P and Q , which has a larger CL free value on record? Pick one; state its label.
P

====

Target: Cytochrome P450 3A4 (Homo sapiens)
Sequence (P08684 whole entry): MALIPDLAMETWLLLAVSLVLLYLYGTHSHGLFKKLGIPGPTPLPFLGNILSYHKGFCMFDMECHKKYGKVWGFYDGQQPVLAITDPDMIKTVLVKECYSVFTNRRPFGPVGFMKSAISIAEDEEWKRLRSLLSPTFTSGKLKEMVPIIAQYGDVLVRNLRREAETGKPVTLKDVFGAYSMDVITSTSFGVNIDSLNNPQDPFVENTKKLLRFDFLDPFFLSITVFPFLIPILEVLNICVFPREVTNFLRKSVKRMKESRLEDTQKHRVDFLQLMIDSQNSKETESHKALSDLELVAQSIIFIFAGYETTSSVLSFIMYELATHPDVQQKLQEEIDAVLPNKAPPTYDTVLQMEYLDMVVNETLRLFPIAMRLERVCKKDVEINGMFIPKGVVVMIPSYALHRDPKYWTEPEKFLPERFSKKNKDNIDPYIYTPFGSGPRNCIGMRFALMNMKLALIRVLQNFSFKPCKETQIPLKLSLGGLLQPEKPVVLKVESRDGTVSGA
Test: Inhibition of CYP3A4 (unknown origin)
pEC50: −log10 of the molar value.
assay-readout: pEC50

Tested on Cytochrome P450 3A4 (Homo sapiens), the item C[C@H](O)CNC(=O)c1ncc(S(=O)(=O)c2ccc(OC(F)(F)F)cc2)cc1N showed pEC50 equal to < 4.00

====

Assay: Clearance in Beagle dog at 1 mg/kg, iv
Assay type: ADME, organism-based, Canis lupus familiaris
Conditions: in vivo
assay-readout: clearance (mL/min/kg)
Give just the number in mL/min/kg; leave the unit off.

Input C[C@H](O)CNC(=O)c1ncc(S(=O)(=O)c2ccc(OC(F)(F)F)cc2)cc1N . Output clearance: 2.33

====

Target: Cystic fibrosis transmembrane conductance regulator (Homo sapiens, UniProt P13569, G551D)
Sequence (P13569 whole entry G551D): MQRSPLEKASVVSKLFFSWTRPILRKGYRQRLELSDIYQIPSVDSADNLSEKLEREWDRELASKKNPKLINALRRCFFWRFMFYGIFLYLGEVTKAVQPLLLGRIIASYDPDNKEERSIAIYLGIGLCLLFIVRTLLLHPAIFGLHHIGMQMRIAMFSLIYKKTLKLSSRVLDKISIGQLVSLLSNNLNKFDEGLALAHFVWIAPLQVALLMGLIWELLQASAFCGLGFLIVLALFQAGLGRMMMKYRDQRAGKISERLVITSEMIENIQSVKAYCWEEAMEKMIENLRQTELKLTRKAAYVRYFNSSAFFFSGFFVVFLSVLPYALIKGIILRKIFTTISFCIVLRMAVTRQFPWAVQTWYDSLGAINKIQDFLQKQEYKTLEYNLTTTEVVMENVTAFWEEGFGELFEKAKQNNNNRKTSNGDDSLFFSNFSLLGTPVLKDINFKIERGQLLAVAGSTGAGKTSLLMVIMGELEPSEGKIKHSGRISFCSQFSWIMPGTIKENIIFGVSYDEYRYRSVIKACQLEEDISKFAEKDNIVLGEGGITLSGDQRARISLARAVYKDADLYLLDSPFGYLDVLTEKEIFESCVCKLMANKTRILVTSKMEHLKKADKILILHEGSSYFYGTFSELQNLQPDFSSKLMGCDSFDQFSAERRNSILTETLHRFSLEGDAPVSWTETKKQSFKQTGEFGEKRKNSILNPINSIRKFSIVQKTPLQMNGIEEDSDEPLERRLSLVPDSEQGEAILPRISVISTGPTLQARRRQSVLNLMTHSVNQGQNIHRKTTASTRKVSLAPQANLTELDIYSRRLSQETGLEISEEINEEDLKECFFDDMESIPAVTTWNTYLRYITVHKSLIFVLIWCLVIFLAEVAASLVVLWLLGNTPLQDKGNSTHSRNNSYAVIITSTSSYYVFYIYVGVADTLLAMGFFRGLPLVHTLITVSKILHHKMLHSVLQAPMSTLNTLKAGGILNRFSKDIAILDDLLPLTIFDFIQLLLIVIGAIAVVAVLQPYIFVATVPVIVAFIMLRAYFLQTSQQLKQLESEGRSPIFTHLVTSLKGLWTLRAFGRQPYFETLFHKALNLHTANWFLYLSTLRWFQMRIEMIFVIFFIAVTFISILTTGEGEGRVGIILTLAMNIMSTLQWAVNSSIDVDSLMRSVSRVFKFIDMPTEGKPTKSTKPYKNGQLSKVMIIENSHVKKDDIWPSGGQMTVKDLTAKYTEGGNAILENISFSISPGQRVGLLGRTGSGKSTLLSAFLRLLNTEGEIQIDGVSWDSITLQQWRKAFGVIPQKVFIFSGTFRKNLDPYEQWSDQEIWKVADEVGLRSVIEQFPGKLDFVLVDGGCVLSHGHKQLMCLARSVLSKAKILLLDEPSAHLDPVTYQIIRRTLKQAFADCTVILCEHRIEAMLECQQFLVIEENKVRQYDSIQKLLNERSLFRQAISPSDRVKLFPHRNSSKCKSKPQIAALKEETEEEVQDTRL
Experiment: Potentiation of CFTR G551D mutant (unknown origin) expressed in human HEK293 cells co-expressing YFP incubated for 10 mins by halide potentiator assay
assay-readout: EC50 (nM)
Give just the number in nM; leave the unit off.

Input COc1ccc(S(=O)(=O)c2cc(C(N)=O)c(NC(=O)C(C)(C)O)s2)cc1 . Output EC50: 478

====

Assay: Unbound intrinsic clearance in rat liver microsomes
Type: ADME, Microsome
assay-readout: CL free (L/h/kg)

Some solved entries appear below for comparison.
compound: Nc1cc(S(=O)(=O)c2ccccc2OC(F)(F)F)cnc1C(=O)NC[C@@H](O)C(F)(F)F
unit-descriptor: L/h/kg
observed-measurement: 7.2
--
compound: CN(Cc1ccccc1)S(=O)(=O)c1cc(C(N)=O)c(NC(=O)c2ccn[nH]2)s1
unit-descriptor: L/h/kg
observed-measurement: 113
--
compound: Nc1cc(S(=O)(=O)c2ccc(OC(F)(F)F)cc2)cnc1C(=O)NC[C@@H](O)C(F)(F)F
unit-descriptor: L/h/kg
observed-measurement: 3.5
--
compound: CC(C)(C)C(=O)Nc1sc(S(=O)(=O)c2ccc(F)cc2)cc1C(N)=O
unit-descriptor: L/h/kg
observed-measurement: 6.3

(I) COc1ccc(S(=O)(=O)c2cc(C(N)=O)c(NC(=O)C(C)(C)O)s2)cc1
(II) NC(=O)c1cc(S(=O)(=O)c2ccc(F)cc2)sc1NC(=O)C1(O)CC1
(III) Nc1cc(S(=O)(=O)N2CCC(OC(F)(F)F)CC2)cnc1C(=O)NCC(O)C(F)(F)F (stereo not given)
Reorder: CL free, max to min. Return the labels ranked in the requested order, please.
III, II, I
(III: 18 L/h/kg, II: 4.6 L/h/kg, I: 2 L/h/kg)

(I) C[C@H](O)CNC(=O)c1ncc(S(=O)(=O)c2ccc(OC(F)(F)F)cc2)cc1N
(II) CC(C)(O)CNC(=O)c1ncc(S(=O)(=O)c2ccc(OC(F)(F)F)cc2)cc1N
For the pair I and II , which member has the lower CL free number? Pick one; state its label.
I
(I: 2.5 L/h/kg, II: 5.6 L/h/kg)

====

Test: Half life in Sprague-Dawley rat at 1 mg/kg, iv
Format: ADME, organism-based
Settings: in vivo
assay-readout: half-life (h)

compound: Nc1cc(S(=O)(=O)c2ccccc2OC(F)(F)F)cnc1C(=O)NC[C@@H](O)C(F)(F)F
assay-readout: half-life
observed-measurement: 6.7

(P) Nc1cc(S(=O)(=O)N2CCC(OC(F)(F)F)CC2)cnc1C(=O)NCC(O)C(F)(F)F (stereo unspecified)
(Q) C[C@H](O)CNC(=O)c1ncc(S(=O)(=O)c2ccc(OC(F)(F)F)cc2)cc1N
(R) COc1ccc(S(=O)(=O)c2cc(C(N)=O)c(NC(=O)C(C)(C)O)s2)cc1
Sort ascending by half-life. Return the labels ranked in the requested order, please.
P, Q, R

====

Target: UniProtKB P05177
Sequence (P05177 whole entry): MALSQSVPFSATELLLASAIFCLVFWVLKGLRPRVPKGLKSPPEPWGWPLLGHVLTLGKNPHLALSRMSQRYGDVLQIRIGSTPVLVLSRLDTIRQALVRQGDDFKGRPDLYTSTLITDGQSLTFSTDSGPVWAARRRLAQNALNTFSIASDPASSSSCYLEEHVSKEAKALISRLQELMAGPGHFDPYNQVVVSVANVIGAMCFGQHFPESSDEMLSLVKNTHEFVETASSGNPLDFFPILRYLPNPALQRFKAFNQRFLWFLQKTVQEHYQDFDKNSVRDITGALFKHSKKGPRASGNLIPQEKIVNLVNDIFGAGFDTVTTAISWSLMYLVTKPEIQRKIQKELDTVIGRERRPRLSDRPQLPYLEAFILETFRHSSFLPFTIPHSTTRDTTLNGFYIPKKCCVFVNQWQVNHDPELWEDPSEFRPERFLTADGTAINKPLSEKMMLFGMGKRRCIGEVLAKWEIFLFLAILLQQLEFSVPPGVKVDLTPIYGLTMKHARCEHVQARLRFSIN
Test: Inhibition of CYP1A2 (unknown origin)
assay-readout: EC50

Input C[C@H](O)CNC(=O)c1ncc(S(=O)(=O)c2ccc(OC(F)(F)F)cc2)cc1N . Output EC50: > 100 µM

====

Assay: Permeability efflux ratio in MDCK cells
Type: ADME, cell-based, Canis lupus familiaris
Settings: dog
assay-readout: efflux ratio

Some solved entries appear below for comparison.
smiles-notation: NC(=O)c1cc(S(=O)(=O)N2CCCCC2)sc1NC(=O)c1ccn[nH]1
efflux ratio: 40

smiles-notation: CN(Cc1ccccc1)S(=O)(=O)c1cc(C(N)=O)c(NC(=O)c2ccn[nH]2)s1
efflux ratio: 47

(1) NC(=O)c1cc(S(=O)(=O)c2ccc(F)cc2)sc1NC(=O)c1ccn[nH]1
(2) NC(=O)c1cc(S(=O)(=O)c2ccc(F)cc2)sc1NC(=O)C1(O)CC1
For the pair 1 and 2 , which member has the lower efflux ratio number? Pick one; state its label.
1

====

Target: Cystic fibrosis transmembrane conductance regulator (Homo sapiens, UniProt P13569, F508DEL)
Test: Potentiation of CFTR F508del mutant in human HBE cells by trans-epithelial clamp circuit assay
Format: cell-based, Primary bronchial epithelial cell
assay-readout: pEC50
To interpret pEC50, take it as minus log10 of a concentration measured in moles per litre.

Input C[C@H](O)CNC(=O)c1ncc(S(=O)(=O)c2ccc(OC(F)(F)F)cc2)cc1N . Output pEC50: 7.74
